assay.procedure: PhoP regulon inhibitors, Salmonella typhi PhoP promoter GFP reporter, confirmatory (AID 1850);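 also: 0% = induced wells with vehicle and 100% = uninduced wells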
study.conditions: fluorescence, 4 h, at 50 µM, hits give high values
Among all 310,000 compounds or so, about 1,000 (0.32%) were called active. These entries were drawn from the full list. Measured potencies and affinities stand elsewhere.
Listed compounds paired with reported inhibition

{"columns": ["compound", "inhibition / %"],
 "data": [
  ["CNC(=S)N/N=C/c1cc(Br)cc(Br)c1O", 6.75],
  ["COc1ccc(CSCC(=O)Nc2ccccc2SC)cc1", 8.6],
  ["O=C(COC(=O)c1ccc([N+](=O)[O-])o1)Nc1cccc(S(=O)(=O)N2CCCCC2)c1", 9.11],
  ["CC(O)(CS(=O)(=O)Cc1ccccc1)C(=O)Nc1ccc(C(F)(F)F)cc1 (stereo not drawn)", 9.99],
  ["COc1ccc(C(=O)NNC(=S)NC(=O)c2ccco2)cc1", 5.07],
  ["CCOc1ccc(-c2noc(CCC(=O)NC3CCCCC3)n2)cc1OC", -7.76],
  ["O=C(NC(=S)NNC(=O)c1cnccn1)c1ccc(Cl)cc1", 10.3],
  ["CCCOc1ccc(C(=O)NNC(=S)NC(=O)c2cccs2)cc1", 19.7],
  ["O=C(Cn1cc(C(F)(F)F)cc(Cl)c1=O)NCc1ccc(Cl)cc1", -1.19],
  ["CC1Oc2cc3c(-c4c(O)cc(O)c5c(O)c6c(cc45)OC(C)C(C)C6=O)c(O)cc(O)c3c(O)c2C(=O)C1C (stereo not drawn)", 15.3],
  ["CCCOc1ccc(C(=O)NNC(=S)NC(=O)c2ccccc2)cc1", 2.22],
  ["Cc1ccc(CS(=O)(=O)CCC(=O)NCC2CCCO2)cc1 (stereo not drawn)", -9.31],
  ["CCC(=O)NC(=S)NNC(=O)c1ccc(OC)cc1", 18.2],
  ["C=C(C)CNC(=S)NNC(=O)c1ccc(Br)cc1", -8.67],
  ["C[C@@H]1Cc2c(O)c(O)cc(O)c2C(=O)O1", 6.45],
  ["COc1cccc(CNS(=O)(=O)c2ccc(S(=O)(=O)NC3CC3)cc2)c1", 0.68],
  ["COc1ccc(C(=O)NC(=S)NNC(=O)c2cnccn2)cc1OC", 31.3],
  ["Cn1c(=O)cc(OCCCC(=O)NCc2cccnc2)c2ccccc21", 0.57],
  ["O=C(N/N=C/c1ccc(Cl)cc1Cl)c1ccncc1", -12.1],
  ["CCCCC(=O)NC(=S)NNC(=O)c1ccc(OC)cc1", -8.34],
  ["O=C(N/N=C/c1coc2ccc(Cl)cc2c1=O)c1ccncc1", -3.86],
  ["O=C(NNC(=S)NC(=O)c1cccnc1)c1ccc(F)cc1", 15.9],
  ["O=C(CN(CCO)c1ccccc1)Nc1ccc(Cl)c(S(=O)(=O)N2CCOCC2)c1", -1.19]
]}

###

Listed compounds paired with reported inhibition
assay.procedure: PhoP regulon inhibitors, Salmonella typhi PhoP promoter GFP reporter, confirmatory (AID 1850);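 also: 0% = induced wells with vehicle and 100% = uninduced wells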
study.conditions: fluorescence, 4 h, at 50 µM, hits give high values
In all, about 310,000 compounds went through this assay and about 1,000 (0.32%) were called active. Not all results are given here. Potency and affinity values are given separately.

{"columns": ["compound", "inhibition, %"],
 "data": [
  ["Cc1ccc(S(=O)(=O)N(C)C(=O)NC(=O)NS(=O)(=O)c2ccccc2)cc1", -5.97],
  ["O=C(Cc1ccccc1)Nc1nccs1", -0.57],
  ["COc1ccc(-c2nc3n(c(=O)c2C#N)CCS3)cc1", 2],
  ["CC(=O)c1cnc2nc(C(F)(F)F)nn2c1C", -10.3],
  ["O=C(CSc1nnc(C2COc3ccccc3O2)o1)Nc1ccc(F)cc1Cl (stereo unspecified)", -3.78],
  ["COc1cc2[nH]c3c(c2cc1OC)CCN1CCCC[C@@H]31", 5.9],
  ["O=C(CSC1=NC(=O)C(c2ccccc2)C(=O)N1)Nc1ccccc1[N+](=O)[O-] (stereo unspecified)", 0.46],
  ["COc1ccc(CCNC(=O)COC(=O)C23CC4CC(CC(C4)C2)C3)cc1", -12.8],
  ["Nc1nc(-c2ccccn2)nc(N)c1Cc1ccc(Cl)cc1Cl", -4],
  ["Clc1ccc(Cc2ccc(Cl)nn2)c(Cl)c1", -3.15],
  ["COCCN(C(=O)COC(=O)CC1CCCCC1)c1c(N)n(Cc2ccccc2)c(=O)[nH]c1=O", -6.56]
]}
